assay: Pharmacokinetic evaluation in rats (intravenous and oral); format: in vivo, male SD rats; conditions: rat, plasma; IV, 0.5 mg/kg, male SD rats (table title says mice)
measurementLabel: AUC(0-t) (µM·h)

[[record]]
moleculesmiles = "COc1cc(OC)c(F)c(Cc2c[nH]c3ncc(-c4cnn(CCO)c4)cc23)c1F.Cl"
measurementlabel = "AUC(0-t)"
datavalue = 1.01


* * *

test: Pharmacokinetic evaluation in rats (intravenous and oral); type: in vivo, male SD rats; conditions: rat, plasma; PO, 5 mg/kg, male SD rats (table title says mice)
measurementLabel: Cmax (nM)

[[record]]
moleculesmiles = "COc1cc(OC)c(F)c(Cc2c[nH]c3ncc(-c4cnn(CCO)c4)cc23)c1F.Cl"
datavalue = 1960


* * *

Assay: Solid stability test (high temperature, high humidity, light, accelerated)
Type: physicochemical
Settings: Light irradiation test, sample in the dark
Procedure: High Performance Liquid Chromatography (HPLC) of the Present Invention [table] Experimental method: 12 parallel samples of the crystal form A of the compound of formula (II) were weighed in an amount of about 1 g each. Each sample was fed to a double-layer LDPE bag, and each layer of the LDPE bag was tied and sealed. […] The photostability experiment was carried out as described in the Chinese Pharmacopoeia and ICH Q1B. The samples were irradiated with visible light and UV light.
measurementLabel: Total impurity (%)

[[record]]
moleculesmiles = "COc1cc(OC)c(F)c(Cc2c[nH]c3ncc(-c4cnn(CCO)c4)cc23)c1F.Cl"
measurementlabel = "Total impurity (%)"
datavalue = 0.79


* * *

assay: Solubility test in media of various pH (water, SGF, FaSSIF, FeSSIF); type: physicochemical; conditions: pH 4.89, thermodynamic from solid; FeSSIF; pH (24 h) 4.89; suspension; read-out: Solubility (mg/ml)_24 h
measurementLabel: solubility at 24 h

[[record]]
moleculesmiles = "COc1cc(OC)c(F)c(Cc2c[nH]c3ncc(-c4cnn(CCO)c4)cc23)c1F.Cl"
datavalue = "0.252 mg/mL"


* * *

experiment: Pharmacokinetic evaluation in rats (intravenous and oral); assay type: in vivo, male SD rats; conditions: rat, plasma; PO, 5 mg/kg, male SD rats (table title says mice)
measurementLabel: AUC(0-t) (µM·h)

[[record]]
moleculesmiles = "COc1cc(OC)c(F)c(Cc2c[nH]c3ncc(-c4cnn(CCO)c4)cc23)c1F.Cl"
datavalue = 5.18


* * *

target: human c-Met (Homo sapiens)
Sequence (P08581 25-1390): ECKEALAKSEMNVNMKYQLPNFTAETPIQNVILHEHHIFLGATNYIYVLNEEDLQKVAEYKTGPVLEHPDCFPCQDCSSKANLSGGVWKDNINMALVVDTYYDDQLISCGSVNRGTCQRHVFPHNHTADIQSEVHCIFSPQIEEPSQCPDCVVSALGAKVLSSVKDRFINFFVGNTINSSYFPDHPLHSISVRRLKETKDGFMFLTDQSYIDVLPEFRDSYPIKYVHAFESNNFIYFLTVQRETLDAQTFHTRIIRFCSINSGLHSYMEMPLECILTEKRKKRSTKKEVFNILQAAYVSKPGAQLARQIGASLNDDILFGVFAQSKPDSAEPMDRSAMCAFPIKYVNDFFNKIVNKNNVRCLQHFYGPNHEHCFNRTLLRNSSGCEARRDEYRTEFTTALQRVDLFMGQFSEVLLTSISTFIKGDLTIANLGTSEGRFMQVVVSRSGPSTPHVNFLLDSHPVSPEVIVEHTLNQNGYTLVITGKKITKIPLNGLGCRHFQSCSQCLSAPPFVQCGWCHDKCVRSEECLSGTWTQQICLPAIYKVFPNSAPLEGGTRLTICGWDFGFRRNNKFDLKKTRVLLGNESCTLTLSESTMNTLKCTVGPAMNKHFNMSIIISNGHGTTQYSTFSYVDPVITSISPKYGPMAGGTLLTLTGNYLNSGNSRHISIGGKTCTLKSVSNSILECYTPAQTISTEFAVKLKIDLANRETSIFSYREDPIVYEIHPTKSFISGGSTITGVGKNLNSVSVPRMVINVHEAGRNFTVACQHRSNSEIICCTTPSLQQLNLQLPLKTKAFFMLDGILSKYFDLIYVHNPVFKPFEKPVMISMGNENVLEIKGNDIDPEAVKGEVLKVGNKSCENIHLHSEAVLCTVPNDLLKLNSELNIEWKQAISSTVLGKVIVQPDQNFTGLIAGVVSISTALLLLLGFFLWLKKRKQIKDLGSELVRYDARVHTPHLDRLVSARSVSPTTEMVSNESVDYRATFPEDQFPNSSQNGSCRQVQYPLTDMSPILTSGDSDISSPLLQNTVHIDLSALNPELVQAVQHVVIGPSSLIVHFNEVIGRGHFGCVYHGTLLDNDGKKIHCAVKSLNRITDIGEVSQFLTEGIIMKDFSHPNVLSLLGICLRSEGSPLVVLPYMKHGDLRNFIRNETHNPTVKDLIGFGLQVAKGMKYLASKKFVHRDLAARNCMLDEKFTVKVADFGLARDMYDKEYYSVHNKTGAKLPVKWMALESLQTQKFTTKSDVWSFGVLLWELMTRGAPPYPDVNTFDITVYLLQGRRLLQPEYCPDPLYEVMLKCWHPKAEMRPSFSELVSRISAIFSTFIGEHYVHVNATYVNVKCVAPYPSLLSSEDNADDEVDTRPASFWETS
measurementLabel: IC50 (nM)

[[record]]
moleculesmiles = "COc1cc(OC)c(F)c(Cc2c[nH]c3ncc(-c4cnn(CCO)c4)cc23)c1F.Cl"
measurementlabel = "IC50"
datavalue = 15.9


* * *

test: Pharmacokinetic evaluation in rats (intravenous and oral); type: in vivo, male SD rats; settings: rat, plasma; PO, 5 mg/kg, male SD rats (table title says mice)
measurementLabel: Tmax (min)

[[record]]
moleculesmiles = "COc1cc(OC)c(F)c(Cc2c[nH]c3ncc(-c4cnn(CCO)c4)cc23)c1F.Cl"
measurementlabel = "Tmax"
datavalue = 30


* * *

assay: Pharmacokinetic evaluation in rats (intravenous and oral); format: in vivo, male SD rats; settings: rat, plasma; IV, 0.5 mg/kg, male SD rats (table title says mice); read-out: Cl
measurementLabel: clearance (mL/min/kg)

[[record]]
moleculesmiles = "COc1cc(OC)c(F)c(Cc2c[nH]c3ncc(-c4cnn(CCO)c4)cc23)c1F.Cl"
datavalue = 18.4


* * *

test: Solubility test in media of various pH (water, SGF, FaSSIF, FeSSIF); type: physicochemical; conditions: pH 5.55, thermodynamic from solid; FaSSIF; pH (24 h) 5.55; suspension; read-out: Solubility (mg/ml)_24 h
measurementLabel: solubility at 24 h (mg/mL)

[[record]]
moleculesmiles = "COc1cc(OC)c(F)c(Cc2c[nH]c3ncc(-c4cnn(CCO)c4)cc23)c1F.Cl"
measurementlabel = "solubility at 24 h"
datavalue = 0.004

